# tested_target: 1-phosphatidylinositol 4,5-bisphosphate phosphodiesterase beta-3 (Homo sapiens) (UniProt Q01970)
# Sequence (Q01970 whole entry, looked up): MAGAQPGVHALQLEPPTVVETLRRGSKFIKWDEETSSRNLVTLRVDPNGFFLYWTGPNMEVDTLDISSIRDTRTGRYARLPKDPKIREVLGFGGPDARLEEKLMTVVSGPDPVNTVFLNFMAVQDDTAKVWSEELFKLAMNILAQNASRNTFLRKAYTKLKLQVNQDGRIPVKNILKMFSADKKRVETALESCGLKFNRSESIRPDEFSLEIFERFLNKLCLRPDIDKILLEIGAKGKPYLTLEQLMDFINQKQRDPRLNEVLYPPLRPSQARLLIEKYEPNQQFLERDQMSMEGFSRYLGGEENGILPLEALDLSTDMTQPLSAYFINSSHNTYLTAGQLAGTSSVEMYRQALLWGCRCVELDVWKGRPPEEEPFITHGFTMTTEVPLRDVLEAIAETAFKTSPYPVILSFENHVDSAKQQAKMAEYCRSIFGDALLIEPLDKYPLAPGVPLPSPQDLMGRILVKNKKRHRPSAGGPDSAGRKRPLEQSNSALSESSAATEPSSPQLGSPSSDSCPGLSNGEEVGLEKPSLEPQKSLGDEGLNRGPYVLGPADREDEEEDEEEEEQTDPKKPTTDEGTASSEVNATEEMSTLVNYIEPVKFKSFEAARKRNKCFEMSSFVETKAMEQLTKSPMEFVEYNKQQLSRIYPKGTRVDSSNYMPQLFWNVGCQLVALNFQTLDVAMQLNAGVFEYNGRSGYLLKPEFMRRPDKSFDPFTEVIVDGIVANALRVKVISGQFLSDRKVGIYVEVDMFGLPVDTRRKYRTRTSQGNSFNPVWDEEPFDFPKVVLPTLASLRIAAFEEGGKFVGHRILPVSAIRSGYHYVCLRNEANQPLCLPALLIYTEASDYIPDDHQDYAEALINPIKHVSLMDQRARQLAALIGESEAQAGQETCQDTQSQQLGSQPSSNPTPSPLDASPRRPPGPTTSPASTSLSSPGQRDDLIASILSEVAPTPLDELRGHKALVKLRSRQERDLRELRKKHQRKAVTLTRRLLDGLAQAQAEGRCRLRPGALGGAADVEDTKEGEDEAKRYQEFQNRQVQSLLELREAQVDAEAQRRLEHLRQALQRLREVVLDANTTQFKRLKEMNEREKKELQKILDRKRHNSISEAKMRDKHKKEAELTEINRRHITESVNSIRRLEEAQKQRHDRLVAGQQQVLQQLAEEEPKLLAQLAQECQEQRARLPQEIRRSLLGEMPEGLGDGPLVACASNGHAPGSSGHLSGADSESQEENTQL
# protocol_details: phospholipase C beta3 enzyme inhibition – biochemical, fluorescence, primary screen (AID 720704);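 also: 0% = median of compound wells on plate and 100% = full blocker control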
# condition_set: Purified PLC-beta3, fluorogenic substrate, at 12.2 µM
Out of some 370,000 compounds screened, about 660 (0.18%) were called active. Rule as the data show it: active = inhibition above about 11%; inactive = the rest. What follows is part of a selection rich in actives, with near analogues and random picks from the rest.
Outcomes you can answer with include only these: label 1 (active), label 0 (inactive)

In [3]: df
Out[3]:
                                   molecule  assigned_class
0  CC1C(=O)Nc2ccccc2N1C(=O)c1c(F)cccc1F (stereo unspecified)         label 0
1  CCC(C)(C(=O)NC1CCCCC1)N(C)C(=O)c1ccc2c(c1)OCO2 (stereo unspecified)         label 0
2  O=C(C1CCCO1)N1CCN(C(=S)NC2CC2)CC1 (stereo unspecified)         label 0
3  CC(C)CCN(C(=O)c1csnn1)C(C(=O)NC1CCCC1)c1ccccc1 (stereo unspecified)         label 0
4  O=C(C(=O)N1CCN(c2ccccc2)CC1)c1ccc2c(c1)OCO2         label 0

Which outcome was assigned to CCOC(=O)/C=C/CN(C(=O)OC(C)(C)C)S(=O)(=O)N1CC=CC1 in this test?
label 0

Which outcome was assigned to Cc1cc(C(=O)OC(C)C(=O)Nc2cccc(S(=O)(=O)N3CCOCC3)c2)c(C)o1 (stereo unspecified) in this test?
label 0

Which outcome was assigned to COc1ccc(C(N)c2csc(NC(=O)Nc3cccc(C(F)(F)F)c3)n2)cc1 (stereo unspecified) in this test?
label 1

Which outcome was assigned to CCSc1sc(CC)cc1C=O in this test?
label 0

Which outcome was assigned to CC1(C(=O)NCc2ccco2)Cc2c(-c3ccc4c(c3)OCO4)ccnc2O1 (stereo unspecified) in this test?
label 0

Which outcome was assigned to C=C(Cl)COC(=O)C1C2C=CC(C2)C1C(=O)O (stereo unspecified) in this test?
label 0

Which outcome was assigned to Cc1ccc(C)c(N(CC(=O)NCc2ccco2)C(=O)CCC(=O)Nc2ccccn2)c1 in this test?
label 0
